# TARGET: Neurogenic locus notch homolog protein 3 (Homo sapiens)
# ASSAY_NAME: NOTCH3 binders on small-molecule microarray, primary screen, biochemical, 635/667 nm fluorescence (AID 1096)
# DETAILS: NOTCH3 binding, 635 nm fluorescence, higher = more signal

{"columns": ["COMPOUND", "composite z-score"],
 "data": [
  ["C=C(CCCC)/C(=C/C[C@H](OC(C)=O)c1ccc(CO)o1)c1cnc2ccccc2c1", 1.07],
  ["COCCOC(=O)N1C(=O)[C@@]2(c3ccccc31)[C@H](C(=O)Nc1nc3ccccc3s1)[C@H]1C(=O)O[C@H](c3ccccc3)[C@H](c3ccccc3)N1[C@@H]2c1ccc(OCCO)cc1", 1.13],
  ["CCCCC(CC)C(O)C1C=CC2C(=O)N(c3ccccc3)C(=O)C2N1Nc1ccccc1 (centres undefined)", 1.11],
  ["O=C/C=C/c1ccc(Cl)cc1", -1.09]
]}

====

Quick reference for composite z-score among some molecules
# Test system: Human papillomavirus type 1a protein E7 (residues 44-93)
# ASSAY_NAME: HPV1a E7 fragment binders on microarrays, primary screen, biochemical, small-molecule microarray, residues 44-93, 635 nm fluorescence (AID 1108);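 further: E7 fragment applied at 1 µg/mL in TBST for 1 h at 4 C; score combines spot fluorescence with its signal to noise ratio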
# DETAILS: small-molecule microarray binding, fluorescence 635 nm; higher = more signal

{"columns": ["MOLECULE", "TARGET", "composite z-score"],
 "data": [
  ["CCOC(=O)C[C@H]1[C@H](OC(=O)c2ccc(-c3ccccc3)cc2)[C@@H](NC(=O)Cc2ccc(OC)cc2)c2cc(OCCCO)ccc2N1C(=O)c1ccc2ccccc2n1", "Human papillomavirus type 1a protein E7 (residues 44-93)", 1.13],
  ["O=C1O[C@@H](c2ccccc2)[C@@H](c2ccccc2)N2[C@@H](c3ccc(OCCO)cc3)[C@]3(C(=O)Nc4ccccc43)[C@@H](C(=O)Nc3nc4ccccc4s3)[C@H]12", "Human papillomavirus type 1a protein E7 (residues 44-93)", 1.44],
  ["Cc1ccccc1C(O)C1C=CC2C(=O)N(C)C(=O)C2N1Nc1ccccc1 (stereo unspecified)", "Human papillomavirus type 1a protein E7 (residues 44-93)", 0.633],
  ["C=C(COC)C(=O)CC[C@@H](OC(=O)c1cccnc1)c1ccc(CO)o1", "Human papillomavirus type 1a protein E7 (residues 44-93)", 0.369],
  ["COc1cc2c(cc1O)C(C)N(Cc1cccc(OC(F)(F)F)c1)CC2 (stereo unspecified)", "Human papillomavirus type 1a protein E7 (residues 44-93)", 1.37],
  ["O=C1OCCC=C[C@H]2OC34C=CCN(Cc5ccccc5)C(=O)[C@H]3N(CCCO)C(=O)[C@@H]4C12 (stereo partly specified)", "Human papillomavirus type 1a protein E7 (residues 44-93)", -0.786],
  ["CO[C@H]1O[C@H](CO)[C@@H](OC(=O)Nc2ccc(Oc3ccccc3)cc2)[C@H](OC(=O)Nc2ccccc2)[C@H]1OC(=O)Nc1ccccc1", "Human papillomavirus type 1a protein E7 (residues 44-93)", 0.838],
  ["C=C[C@H](COC(C)=O)N(Cc1ccc(OC(C)=O)c(OC)c1)S(=O)(=O)c1ccc(Br)cc1", "Human papillomavirus type 1a protein E7 (residues 44-93)", 1.29],
  ["COCCOC(=O)N1C(=O)[C@@]2(c3cc(C#CCC(C(=O)OC)C(=O)OC)ccc31)[C@H](c1ccc(O)cc1)N1[C@H](c3ccccc3)[C@H](c3ccccc3)OC(=O)[C@H]1[C@@H]2C(N)=O", "Human papillomavirus type 1a protein E7 (residues 44-93)", 0.698],
  ["O=C(CS)NCCCCCCNC(=O)[C@H]1C[C@H]2C(=O)N3CCC[C@H]3C(=O)N2[C@H]1c1cccc(OCCO)c1", "Human papillomavirus type 1a protein E7 (residues 44-93)", 1.36],
  ["CCOC(=O)C1=CC[C@@H](c2ccccc2)N(S(=O)(=O)c2ccc(C)cc2)[C@H]1C(=O)OCC", "Human papillomavirus type 1a protein E7 (residues 44-93)", 0.841],
  ["CCOC(=O)[C@H]1C[C@H]2O[C@@]23C[C@H]1C(=O)N1CCCC1[C@@H]3O[Si](C)(C)C(C)(C)C (stereo partly specified)", "Human papillomavirus type 1a protein E7 (residues 44-93)", -0.917],
  ["COCCOC(=O)N1C(=O)[C@@]2(c3cc(C#CCC(C(=O)OC)C(=O)OC)ccc31)[C@H](C(=O)N1CCN(c3ncccn3)CC1)[C@H]1C(=O)O[C@H](c3ccccc3)[C@H](c3ccccc3)N1[C@@H]2c1ccc(OCCO)cc1", "Human papillomavirus type 1a protein E7 (residues 44-93)", 1.34],
  ["CCOC(=O)C[C@H]1[C@H](OC(=O)Cc2ccc3c(c2)OCO3)[C@@H](NC(=O)C2CCCCC2)c2cc(OCCCO)ccc2N1C(=O)Cc1ccc(OC)cc1", "Human papillomavirus type 1a protein E7 (residues 44-93)", 1.21],
  ["CC(C)N1CC=CC23O[C@@H]4C=CCOC(=O)[C@@H]4[C@H]2C(=O)N(CCO)[C@@H]3C1=O (stereo partly specified)", "Human papillomavirus type 1a protein E7 (residues 44-93)", 0.723],
  ["CCOC(=O)C[C@H]1[C@H](OC(=O)Cc2ccc3c(c2)OCO3)[C@@H](NC(=O)c2ccc(-c3ccccc3)cc2)c2cc(OCCCO)ccc2N1C(=O)c1ccccc1", "Human papillomavirus type 1a protein E7 (residues 44-93)", 1.06]
]}

Source listed as PubChem BioAssay.
